Collected IC50 values appear next to each entry.
- Target under test: A1 (h) adenosine receptor (Homo sapiens)
- Sequence (P30542 1-326): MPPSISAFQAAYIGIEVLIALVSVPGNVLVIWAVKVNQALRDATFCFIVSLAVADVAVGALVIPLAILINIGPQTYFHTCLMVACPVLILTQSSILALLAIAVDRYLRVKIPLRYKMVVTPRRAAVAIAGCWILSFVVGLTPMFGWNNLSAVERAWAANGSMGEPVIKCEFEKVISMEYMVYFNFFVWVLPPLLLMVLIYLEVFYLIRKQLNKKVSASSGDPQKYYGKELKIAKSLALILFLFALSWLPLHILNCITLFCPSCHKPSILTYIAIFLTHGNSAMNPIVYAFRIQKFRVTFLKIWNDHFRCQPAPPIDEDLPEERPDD
- Assay info: Human recombinant adenosine receptor binding, A1 (h), [3H]DPCPX
- Condition details: [3H]DPCPX; Table 5
Write down the numeric answer in nM and omit the unit.

{"Compound": "CC(C)N(C)c1nc2c(NC3CC4CC3CC4OCCCS(=O)(=O)O)ncnc2n1C (single isomer, unassigned) [Compound 1 (+isomer)]", "Target under test": "A1 (h) adenosine receptor (Homo sapiens)", "Unit symbol": "nM", "IC50": 52}

Kindly review the next compound as well.
Sure, the documented IC50 for CC(C)N(C)c1nc2c(NC3CC4CC3CC4OCCCS(=O)(=O)O)ncnc2n1C (single isomer, unassigned) [1 (−isomer)] is 1800

---

Collected Ki values appear next to each entry.
- Target under test: A1 (h) (agonist site) adenosine receptor (Homo sapiens)
- Sequence (P30542 1-326): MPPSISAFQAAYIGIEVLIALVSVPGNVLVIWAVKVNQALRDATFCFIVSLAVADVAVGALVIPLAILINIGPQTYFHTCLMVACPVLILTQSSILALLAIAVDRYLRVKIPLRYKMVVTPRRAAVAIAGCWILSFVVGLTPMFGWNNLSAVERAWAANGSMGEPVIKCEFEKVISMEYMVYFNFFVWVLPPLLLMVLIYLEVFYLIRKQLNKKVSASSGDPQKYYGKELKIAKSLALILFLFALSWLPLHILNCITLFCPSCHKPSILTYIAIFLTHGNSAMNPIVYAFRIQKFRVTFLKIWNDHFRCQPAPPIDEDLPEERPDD
- Assay info: Human recombinant adenosine receptor binding, A1 (h) (agonist site), [3H]CCPA
- Condition details: [3H]CCPA; Cheng Prusoff; Table 5
Write down the numeric answer in µM and omit the unit.

{"Molecule": "CC(C)N(C)c1nc2c(NC3CC4CC3CC4OCCCS(=O)(=O)O)ncnc2n1C (single isomer, unassigned) [Compound 1 (+isomer)]", "Target under test": "A1 (h) (agonist site) adenosine receptor (Homo sapiens)", "Ki, µM": 0.085}

Kindly review the next molecule as well.
Sure, the documented Ki for CC(C)N(C)c1nc2c(NC3CC4CC3CC4OCCCS(=O)(=O)O)ncnc2n1C (single isomer, unassigned) [1 (−isomer)] is 1.8

---

Collected Ki values appear next to each entry.
- Target under test: A2B (h) adenosine receptor (Homo sapiens, UniProt P29275)
- Sequence (P29275 1-332): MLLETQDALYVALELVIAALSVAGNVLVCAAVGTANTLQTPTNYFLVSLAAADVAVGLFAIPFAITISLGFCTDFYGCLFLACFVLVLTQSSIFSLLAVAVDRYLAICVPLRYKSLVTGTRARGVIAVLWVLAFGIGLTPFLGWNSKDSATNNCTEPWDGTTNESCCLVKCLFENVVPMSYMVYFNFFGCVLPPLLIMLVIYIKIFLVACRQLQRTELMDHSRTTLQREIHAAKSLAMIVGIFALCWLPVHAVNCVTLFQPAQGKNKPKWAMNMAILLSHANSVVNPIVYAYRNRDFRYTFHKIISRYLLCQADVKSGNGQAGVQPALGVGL
- Assay info: Human recombinant adenosine receptor binding, A2B (h), [3H]MRS 1754
- Condition details: Table 8; read-out: Affinity Ki, A2B

{"Compound": "CC(C)N(C)c1nc2c(NC3CC4CC3CC4OCCCS(=O)(=O)O)ncnc2n1C (single isomer, unassigned) [Compound 1 (+isomer)]", "Ki": "> 100 µM"}

Sure, the documented Ki for CC(C)N(C)c1nc2c(NC3CC4CC3CC4OCCCS(=O)(=O)O)ncnc2n1C (single isomer, unassigned) [1 (−isomer)] is > 100 µM

---

- Target under test: A3 (h) adenosine receptor (Homo sapiens, UniProt P0DMS8)
- Sequence (P0DMS8 whole entry): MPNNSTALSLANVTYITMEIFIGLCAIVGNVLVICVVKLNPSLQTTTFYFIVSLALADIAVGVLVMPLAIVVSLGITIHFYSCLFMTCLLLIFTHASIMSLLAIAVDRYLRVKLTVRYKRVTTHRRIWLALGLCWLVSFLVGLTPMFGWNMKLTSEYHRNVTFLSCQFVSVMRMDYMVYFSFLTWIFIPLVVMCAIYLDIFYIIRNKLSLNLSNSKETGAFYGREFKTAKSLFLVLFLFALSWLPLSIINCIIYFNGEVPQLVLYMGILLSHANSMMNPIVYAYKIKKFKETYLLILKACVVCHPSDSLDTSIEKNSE
- Assay info: Human recombinant adenosine receptor binding, A3 (h), [3H]AB-MECA
- Condition details: Table 7; N.C. = not calculable, less than 25% inhibition at the highest tested concentration
pIC50: −log10 of the molar value.
Measured quantity: pIC50

Sure, the documented pIC50 for CC(C)N(C)c1nc2c(NC3CC4CC3CC4OCCCS(=O)(=O)O)ncnc2n1C (single isomer, unassigned) [Compound 1 (+isomer)] is < 4.00

---

- Target under test: A2A (h) adenosine receptor (Homo sapiens)
- Sequence (P29274 whole entry): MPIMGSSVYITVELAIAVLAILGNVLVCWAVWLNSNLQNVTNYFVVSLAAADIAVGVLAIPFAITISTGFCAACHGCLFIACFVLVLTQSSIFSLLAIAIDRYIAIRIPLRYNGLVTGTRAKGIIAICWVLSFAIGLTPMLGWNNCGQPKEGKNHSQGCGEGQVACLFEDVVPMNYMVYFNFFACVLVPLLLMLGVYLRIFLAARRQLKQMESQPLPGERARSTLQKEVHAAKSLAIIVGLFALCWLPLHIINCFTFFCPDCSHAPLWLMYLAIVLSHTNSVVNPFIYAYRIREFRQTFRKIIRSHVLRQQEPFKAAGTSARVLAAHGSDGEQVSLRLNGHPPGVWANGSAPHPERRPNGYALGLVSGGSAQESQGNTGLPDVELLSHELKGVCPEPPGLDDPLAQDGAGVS
- Assay info: Human recombinant adenosine receptor binding, A2A (h), [3H]CGS 21680
- Condition details: Table 6
Collected IC50 values appear next to each entry.
Write down the numeric answer in µM and omit the unit.

{"Compound": "CC(C)N(C)c1nc2c(NC3CC4CC3CC4OCCCS(=O)(=O)O)ncnc2n1C (single isomer, unassigned) [Compound 1 (+isomer)]", "Target under test": "A2A (h) adenosine receptor (Homo sapiens)", "IC50, µM": 3.2}

Kindly review the next compound as well.
Sure, the documented IC50 for CC(C)N(C)c1nc2c(NC3CC4CC3CC4OCCCS(=O)(=O)O)ncnc2n1C (single isomer, unassigned) [1 (−isomer)] is 100

---

Collected Ki values appear next to each entry.
- Target under test: A1 (h) adenosine receptor (Homo sapiens, UniProt P30542)
- Construct: expressed in transfected cells
- Sequence (P30542 1-326): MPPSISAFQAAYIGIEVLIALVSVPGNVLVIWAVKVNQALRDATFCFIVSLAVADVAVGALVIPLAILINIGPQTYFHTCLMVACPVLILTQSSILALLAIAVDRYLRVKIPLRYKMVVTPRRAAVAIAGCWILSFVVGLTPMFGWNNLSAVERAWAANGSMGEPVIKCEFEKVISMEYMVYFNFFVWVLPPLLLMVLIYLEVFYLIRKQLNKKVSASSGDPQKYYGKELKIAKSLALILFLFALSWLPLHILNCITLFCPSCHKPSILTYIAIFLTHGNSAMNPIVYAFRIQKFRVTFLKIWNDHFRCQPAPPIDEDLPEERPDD
- Assay info: Human recombinant adenosine receptor binding, A1 (h), [3H]DPCPX
- Condition details: Table 8; read-out: Affinity Ki, A1
Write down the numeric answer in nM and omit the unit.

{"Compound": "CC(C)N(C)c1nc2c(NC3CC4CC3CC4OCCCS(=O)(=O)O)ncnc2n1C (single isomer, unassigned) [Compound 1 (+isomer)]", "Ki / nM": 32}

Field Ki (system: A1 (h) adenosine receptor (Homo sapiens, UniProt P30542)) for entry CC(C)N(C)c1nc2c(NC3CC4CC3CC4OCCCS(=O)(=O)O)ncnc2n1C (single isomer, unassigned) [1 (−isomer)] = 1100

---

- Target under test: A2A (h) adenosine receptor (Homo sapiens)
- Construct: expressed in transfected cells
- Assay info: Human recombinant adenosine receptor binding, A2A (h), [3H]CGS 21680
- Condition details: Table 8; read-out: Affinity Ki, A2A
Measured quantity: pKi
Please report pKi as the negative decimal logarithm of the molar concentration, giving only the number.

{"Molecule": "CC(C)N(C)c1nc2c(NC3CC4CC3CC4OCCCS(=O)(=O)O)ncnc2n1C (single isomer, unassigned) [Compound 1 (+isomer)]", "pKi": 5.59}

Kindly review the next molecule as well.
Sure, the documented pKi for CC(C)N(C)c1nc2c(NC3CC4CC3CC4OCCCS(=O)(=O)O)ncnc2n1C (single isomer, unassigned) [1 (−isomer)] is 4.09

---

Collected Ki values appear next to each entry.
- Target under test: A2A (h) adenosine receptor (Homo sapiens)
- Construct: expressed in transfected cells
- Assay info: Human recombinant adenosine receptor binding, A2A (h), [3H]CGS 21680
- Condition details: Cheng Prusoff; Table 6; read-out: Ki, A2A (h)
- Experimental: The compounds of the present invention were subjected to in vitro human recombinant adenosine receptor binding assays. Scintillation counting was used as the method of detection. […] The inhibition constants (Ki) were calculated from the Cheng Prusoff equation (Motulsky, H. and Christopoulos, A., supra).
Write down the numeric answer in µM and omit the unit.

{"Molecule": "CC(C)N(C)c1nc2c(NC3CC4CC3CC4OCCCS(=O)(=O)O)ncnc2n1C (single isomer, unassigned) [Compound 1 (+isomer)]", "Target under test": "A2A (h) adenosine receptor (Homo sapiens)", "Unit symbol": "µM", "Test value": 2.6}

Sure, the documented Ki for CC(C)N(C)c1nc2c(NC3CC4CC3CC4OCCCS(=O)(=O)O)ncnc2n1C (single isomer, unassigned) [1 (−isomer)] is 82
